# Tested on: UO-31
# assay_remarks: NCI tumour cell line growth inhibition, 48 h
Active and inactive are the calls of the source. No stated cut-off is given here; in the data, active = GI50 up to about 1.1 µM and inactive = higher.
observation_type: GI50

Ask: Return reported GI50 for target or system UO-31, item CN1C(=O)C(O)CC1c1cccc(F)c1 (centres undefined) .
Result: > 100 µM (inactive)

Ask: Report GI50 from UO-31 testing of CCC1CCc2c(c(=O)oc3c2cc(OC)c2cccc(OC)c23)C1 (centres undefined)
Result: > 100 µM (inactive)

Ask: Param request: GI50 | system UO-31 | item Clc1ccc(-c2nn3c(CCCCCCCCc4nnc5sc(-c6ccc(Cl)cc6)nn45)nnc3s2)cc1
Result: 12.6 µM (inactive)

Ask: Quote UO-31 GI50 for entry CCOC(=O)[C@@H]1C2C(=C[C@H]3[C@H]1C(=O)N1CCCC[C@H]31)CCCN2C(=O)OCc1ccccc1 (some centres undefined) .
Result: 32.8 µM (inactive)

Ask: Write down the reported GI50 (system: UO-31) of O=C(c1ccc(Cl)cc1Cl)C1[C@H]2C(=O)N(c3ccc(Cc4ccc(N5C(=O)[C@@H]6ON(c7ccccc7)C(C(=O)c7ccc(Cl)cc7Cl)[C@@H]6C5=O)cc4)cc3)C(=O)[C@H]2ON1c1ccccc1 (some centres undefined)
Result: > 50 µM (inactive)

Ask: Fill in GI50 for O=C(c1ccco1)N(C(=O)N1CCC(c2ccccc2)CC1)c1ccccc1 tested with UO-31.
Result: 24.4 µM (inactive)

Ask: Report GI50 under test system UO-31 for CNC(=S)N/N=C(C)\C(=N/NC(=S)NC)c1ccccc1 .
Result: 30.7 µM (inactive)

Ask: Tell me its GI50 on UO-31: COC(=O)c1ccc(OCc2ccc3nc(-c4ccccc4)c(Cl)nc3c2)cc1
Result: > 100 µM (inactive)

Ask: Provide UO-31 GI50 reading for O=C(CCO)OCCCCCC/C=C\CCCCCC/C=C\CCCCCCCCOC(=O)CCO .
Result: 18.6 µM (inactive)

====

I'd appreciate it if you could supply GI50 values for the items below.
# System: MDA-MB-231
# assay_remarks: NCI tumour cell line growth inhibition, 48 h
Calls of active or inactive are those of the source. No stated cut-off is given here; in the data, active = GI50 up to about 1.1 µM and inactive = higher.

Ask: Name the recorded GI50 of the compound listed here: C=C1C(=O)O[C@H]2[C@H]3O[C@@H](C[C@@H]12)[C@@]1(C)CC[C@H](O1)C(C)=CCC[C@H]3C
Result: 1.62 µM (inactive)

Ask: Check the records and state GI50 for CC(=O)Oc1c(N2CCCCC2)c(C(=O)c2ccccc2)c(O)c2ccn(N(C)C)c12
Result: 14 µM (inactive)

Ask: Fill in GI50 for record C[N+](C)(C)c1ccc(C(N)C(=O)O)cc1 (stereo unspecified)
Result: > 100 µM (inactive)

Ask: Kindly indicate its recorded GI50. Item: COc1ccc(O[C@H](CO)C[C@@H]2COC(C)(C)O2)cc1
Result: > 100 µM (inactive)

Ask: Provide GI50 value for the following compound: O=C1CC(=O)c2c(Cl)sc(Cl)c21
Result: > 100 µM (inactive)

Ask: Look up and state reported GI50 for OCC(O)C(Cl)CCl (stereo unspecified)
Result: > 100 µM (inactive)

Ask: State its GI50 for this compound: Sc1ncnc2nc[nH]c12 [MERCAPTOPURINE ANHYDROUS]
Result: 24.4 µM (inactive)

Ask: Specify GI50 for Nc1ncnc2c1ncn2CCCNO and stop.
Result: > 100 µM (inactive)

Ask: Look up and report measured GI50 for this entry: O=C(Nc1sccc1S(=O)(=O)c1ccc(Cl)cc1)c1ccc(Cl)cc1Cl
Result: > 100 µM (inactive)

Ask: Identify the reported GI50 for the following entry. COc1cc(C2=C(C#N)C(N)OC3=C2COc2ccccc23)cc(OC)c1OC (stereo unspecified)
Result: 15.2 µM (inactive)

Ask: Answer with the recorded GI50 of CC1=C(C(=O)OC2CC3CCC2(C)C3(C)C)C2Nc3ccccc3N(C)C2O1 (stereo unspecified) only.
Result: 3.01 µM (inactive)

====

# System: SK-MEL-2
# assay_remarks: NCI tumour cell line growth inhibition, 48 h
Calls of active or inactive are those of the source. Cut-off read from the data, not from the text of the source: active = GI50 up to about 1.1 µM and inactive = higher.
Give one outcome, nothing more. List: 1 for active, -1 for inactive

Ask: Name the outcome recorded for CSc1nc(SC)c2c(C)c(Br)[nH]c2n1 in the assay.
Result: -1

Ask: Given Nc1ccc(S(=O)(=O)Nc2cnc3c(Cl)cccc3n2)cc1 , state the outcome it received in this test.
Result: -1

Ask: What did the test return for CC(C)C/N=C(\N)N=C(N)N ?
Result: -1

Ask: How was COC1=CC(=O)c2c(c(COP(=O)(N(C)CCBr)N(C)CCBr)cn2C)C1=O classified in this test?
Result: 1

Ask: Call for entry O=C(O)C(CS)NCc1c2ccccc2nc2ccccc12 (stereo unspecified) :
Result: -1

Ask: State the result this test recorded for CN1C(=O)C23CC4=CC=CC(O)C4N2C(=O)C1(CO)SS3 (stereo unspecified) .
Result: 1

Ask: Would you mind telling me which call this test gave O=C1C=C(NCCc2ccc(O)cc2)C(=O)C=C1NCCc1ccc(O)cc1 ?
Result: -1

Ask: Lab log entry: Cc1ncn(-c2ccccc2O)c1C — outcome as called in the assay?
Result: -1

Ask: Hey, what did the test say about O=[N+]([O-])c1nc(-c2ccccn2)[nH]c1[N+](=O)[O-] ?
Result: -1

Ask: Returns: the outcome recorded for Cc1occc1C(=S)Nc1ccc(Cl)c(C(=O)OC(C)C2CC2)c1 (stereo unspecified) in this assay.
Result: -1

Ask: Returns: the outcome recorded for O=C(Nc1ccn(CCO)c(=O)n1)c1ccccc1 in this assay.
Result: -1

====

# System: CCRF-CEM
# assay_remarks: NCI tumour cell line growth inhibition, 48 h
Active and inactive are the calls of the source. Rule as the data show it: active = GI50 up to about 1.1 µM and inactive = higher.
Allowed answers: active, inactive

Ask: Which outcome was assigned to CN(C)CCCNC(=O)c1cccc2ccccc12 in this test?
Result: inactive

Ask: Dear all, I need the recorded test outcome for COc1ccc(C2c3cc(OC)c(OC)cc3C(Cc3ccc([N+](=O)[O-])cc3)C2c2ccc([N+](=O)[O-])cc2)cc1OC (configuration not stated) , thank you.
Result: inactive

Ask: I'd appreciate the recorded outcome for O=C(O)c1ccc(NC(=O)C2C(=O)C(=O)N(c3ccc(C(=O)O)cc3)C2=O)cc1 (configuration not stated) from this test.
Result: inactive

Ask: State the result this test recorded for CN(C)CCNc1ccc2ncn3c4ccccc4c(=O)c1c23 .
Result: inactive

Ask: Dear all, I need the recorded test outcome for CCN(CC)C(=S)S [DITIOCARB SODIUM] , thank you.
Result: active

Ask: Which result was noted for this compound in the test: CCOC(=O)c1nnsc1NC(=O)Nc1ccc(Cl)cc1
Result: inactive

Ask: GET /call?item= O=C(c1ccco1)N(C(=O)N1CCC(c2ccccc2)CC1)c1ccccc1 returns the recorded outcome of this test.
Result: inactive

Ask: How did this test come out for CN1C=C(C(N)=O)C2CC(O)[C@@](NC(=O)CS(N)(=O)=O)(C(=O)O)C2C1 (some centres not stated) ?
Result: inactive

Ask: Recorded call for O=C(O)c1ccc(Oc2nc3ccccc3s2)cc1 ?
Result: inactive

Ask: Record lookup: outcome of this test for CN(C)/C=C1\CCc2ccc([N+](=O)[O-])cc2C1=O ?
Result: inactive

Ask: Returns: the outcome recorded for CC1CC(OP(=O)(OCc2ccccc2)OCc2ccccc2)[C@@H](OCc2ccccc2)C(OCc2ccccc2)C1OCc1ccccc1 (some centres not stated) in this assay.
Result: inactive

Ask: Entry CC(=O)OC1COC(N2C(=O)C(=O)c3cc(Br)ccc32)C(OC(C)=O)C1OC(C)=O (configuration not stated) : call = ?
Result: inactive

Ask: What call does the record list for COc1cc(C2=C(C#N)C(N)OC3=C2COc2ccccc23)cc(OC)c1OC (configuration not stated) ?
Result: active

Ask: Entry O=C1/C(=C\c2cccc(Oc3ccccc3)c2)SC(c2ccccc2)N1c1ccc(Cl)cc1 (configuration not stated) : call = ?
Result: inactive

Ask: Short answer needed: outcome of this test for Cc1oc(N)c(S(=O)(=O)c2ccc(Cl)cc2)c1C ?
Result: inactive

Ask: Dear colleague, could you share the recorded outcome for CN1CC[C@]2(c3cccc(O)c3)CC(=O)/C(=C/c3ccccc3)[C@@H]1C2.[O-][Cl+3]([O-])([O-])O when you have a moment?
Result: inactive

Ask: Identify the outcome logged in this assay for the compound shown: C1CCNCC1.CN(C)c1ccc(/C=C2/NC(=S)NC2=O)cc1
Result: inactive

Ask: What classification did CC1(C)CC(=O)C(=[N+]=[N-])C(=O)C1 end up with in this test?
Result: inactive

Ask: Field: outcome | Entry: CCCC1C(=O)Nc2cccc3ncn(c23)C1=O (configuration not stated)
Result: inactive

Ask: Could you kindly confirm the outcome this assay logged for OCC(O)C(Cl)CCl (configuration not stated) ?
Result: inactive

Ask: How was COc1cc(C2SCC(=O)N2c2ccc(Cl)c(Cl)c2)cc(OC)c1OC (configuration not stated) classified in this test?
Result: inactive

Ask: For this compound, state the assay outcome: COc1ccc(C2C(Cl)C(=O)N2NC(=O)c2ccccc2O)cc1OC (configuration not stated)
Result: inactive

Where do these numbers come from? They come from ChEMBL document CHEMBL1201862.
